Attribute: inhibition at 3 µM
# Test System: UniProt P08684
# Sequence (P08684 whole entry): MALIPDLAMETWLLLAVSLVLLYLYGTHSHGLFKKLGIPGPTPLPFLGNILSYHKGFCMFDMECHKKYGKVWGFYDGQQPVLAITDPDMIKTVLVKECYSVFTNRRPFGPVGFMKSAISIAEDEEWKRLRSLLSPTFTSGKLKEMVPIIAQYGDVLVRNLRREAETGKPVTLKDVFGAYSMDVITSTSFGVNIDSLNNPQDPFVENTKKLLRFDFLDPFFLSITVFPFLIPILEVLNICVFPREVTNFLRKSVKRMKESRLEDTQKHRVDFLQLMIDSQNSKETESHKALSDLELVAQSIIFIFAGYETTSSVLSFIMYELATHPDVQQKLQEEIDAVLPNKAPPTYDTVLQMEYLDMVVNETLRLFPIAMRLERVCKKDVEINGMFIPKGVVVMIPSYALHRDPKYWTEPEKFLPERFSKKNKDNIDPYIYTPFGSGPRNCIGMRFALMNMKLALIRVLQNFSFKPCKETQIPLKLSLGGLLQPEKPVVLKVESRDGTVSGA
# Test Details: Inhibition of CYP3A4 at 3 uM
# Assay type: ADME
Assay Endpoint: inhibition at 3 µM

COc1cc(Nc2c(C#N)cnc3cc(NCCCN4CCN(C)CC4)c(OC)cc23)c(Cl)cc1Cl    < 34%
COc1cc(Nc2c(C#N)cnc3cc(NCCCN(C)C)c(OC)cc23)c(Cl)cc1Cl    < 34%

---

# Test System: UniProt P10635
# Sequence (P10635 whole entry): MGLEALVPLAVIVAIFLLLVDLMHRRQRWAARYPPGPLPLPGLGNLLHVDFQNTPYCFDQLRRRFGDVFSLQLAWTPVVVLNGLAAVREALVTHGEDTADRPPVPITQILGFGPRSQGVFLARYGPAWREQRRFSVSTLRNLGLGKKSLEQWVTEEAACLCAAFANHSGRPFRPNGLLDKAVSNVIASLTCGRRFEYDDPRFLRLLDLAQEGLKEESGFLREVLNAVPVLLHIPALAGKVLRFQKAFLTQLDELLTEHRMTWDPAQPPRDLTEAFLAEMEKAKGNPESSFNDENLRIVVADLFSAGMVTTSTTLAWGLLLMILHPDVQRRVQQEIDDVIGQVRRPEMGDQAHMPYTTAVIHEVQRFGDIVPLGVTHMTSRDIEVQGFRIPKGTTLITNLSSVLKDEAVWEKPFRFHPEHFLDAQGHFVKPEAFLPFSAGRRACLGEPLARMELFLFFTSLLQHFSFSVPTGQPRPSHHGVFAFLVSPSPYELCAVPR
# Test Details: Inhibition of CYP2D6 at 3 uM
# Assay type: ADME
Assay Endpoint: inhibition at 3 µM

COc1cc(Nc2c(C#N)cnc3cc(NCCCN(C)C)c(OC)cc23)c(Cl)cc1Cl    < 34%
COc1cc(Nc2c(C#N)cnc3cc(NCCCN4CCN(C)CC4)c(OC)cc23)c(Cl)cc1Cl    < 34%
